Measured IC50, listed per entry.
measurement_notes: Inhibition of quorum sensing system in Pseudomonas aeruginosa PA01 transfected with lasB-gfp
measured_attribute: IC50 (µM)

INSERT INTO measurements (smiles, quantitative_readout) VALUES
  ('O=C(NCCSSCCNC(=O)/C(Cc1ccc(O)c(Br)c1)=N/O)/C(Cc1ccc(O)c(Br)c1)=N/O', 30.7),
  ('O=C(NCCSSCCNC(=O)/C(Cc1cc(Br)c(O)c(-c2cc(C/C(=N\O)C(=O)NCCSSCCNC(=O)/C(Cc3ccc(O)c(Br)c3)=N/O)cc(Br)c2O)c1)=N\O)/C(Cc1ccc(O)c(Br)c1)=N\O', 8.53);
